Tested on: c-Src
Test: phosphorylation enrichment, bacterial display (enrichment ratio); higher = better substrate or ligand; peptides without Tyr show the background
value type: phosphorylation enrichment
Answers are plain numbers.

Below are worked cases with known answers.
residue sequence	phosphorylation enrichment
NSNSDYVDILP [SH2D1B_Y127_V130I]	0.573
ISSLRYKLLEE [TRPC6_Y896_E897K]	0.407
IGKAGYTDKVV [ENO1_Y236]	0.335
MSRFIYSTDFF [NTRK1_Y676_D674Y_YF]	4.05
ANVKWYRSGRE	0.512
LSVEIHDRREY [ITGB7_Y753_Y753H]	0.438

Now consider the entry below.
Q) Fill in: phosphorylation enrichment of SDVWSYGVTMW [ZAP70_Y525] is ___
A) 0.54

====

Tested on: Fer (mouse)
Assay: phosphorylation enrichment, bacterial display (enrichment ratio); higher = better substrate or ligand; peptides without Tyr show the background
Could you please report measured phosphorylation enrichment for the items listed next?
Numbers only.

residue sequence	recorded value
APGNAYGDAGF [SYP_Y250_D248N_YF]	0.369
RTLSEYARPHV [RERE_Y1259]	0.468
DAGTDYVGISC [FREM2_Y2061_R2066C]	0.558
HNVAIYEGFAL [ACTC1_Y168_P166A_YF]	17
YPPDGYSRHCE [CTNND1_Y213_Y217C]	0.514

List phosphorylation enrichment for every entry below, keeping the order given.
1. ALAHKYQGGGG [HBB_Y146_H147Q]
2. EYGSGYPNDPK [RNASEH2A_Y210_D205E]

A)
0.283
0.505

List phosphorylation enrichment for every entry below, keeping the order given.
1. KLLPEYPGVLS [DHFR2_Y163]
2. LKLIQYHLIQQ [AKAP4_Y554_T557I]

A)
[0.493, 0.544]

List phosphorylation enrichment for every entry below, keeping the order given.
1. DAKAIYDFTDT [PDK1_Y136]
2. DRLASYPDKVR [KRT14_Y129_L130P]

A)
5.43
0.373

List phosphorylation enrichment for every entry below, keeping the order given.
1. LVQAEYWHDRI [PPT1_Y185_P189R]
2. MKKQKYGRIIM [HSD17B4_Y143]
3. MGGSVYFSYPD [HIKESHI_Y55]
4. IVAEFYDNLPH [DEGS1_Y284_A280V_YF]
5. NTDETYSIDNE [TUBB2B_Y200_C201S]
6. SYMVRYNQPRV [GRIN2D_Y736]

A)
1. 0.706
2. 0.565
3. 0.401
4. 0.978
5. 0.63
6. 0.419

List phosphorylation enrichment for every entry below, keeping the order given.
1. LKGQVYILVRE [ASS1_Y359_G362V]
2. SSMIDYNTLEK [MYOC_Y479_P481T]

A)
1: 0.328; 2: 0.453

====

Could you please report measured phosphorylation enrichment for the items listed next?
Molecular target: Hck (UniProt P08631)
Sequence (P08631 whole entry, looked up): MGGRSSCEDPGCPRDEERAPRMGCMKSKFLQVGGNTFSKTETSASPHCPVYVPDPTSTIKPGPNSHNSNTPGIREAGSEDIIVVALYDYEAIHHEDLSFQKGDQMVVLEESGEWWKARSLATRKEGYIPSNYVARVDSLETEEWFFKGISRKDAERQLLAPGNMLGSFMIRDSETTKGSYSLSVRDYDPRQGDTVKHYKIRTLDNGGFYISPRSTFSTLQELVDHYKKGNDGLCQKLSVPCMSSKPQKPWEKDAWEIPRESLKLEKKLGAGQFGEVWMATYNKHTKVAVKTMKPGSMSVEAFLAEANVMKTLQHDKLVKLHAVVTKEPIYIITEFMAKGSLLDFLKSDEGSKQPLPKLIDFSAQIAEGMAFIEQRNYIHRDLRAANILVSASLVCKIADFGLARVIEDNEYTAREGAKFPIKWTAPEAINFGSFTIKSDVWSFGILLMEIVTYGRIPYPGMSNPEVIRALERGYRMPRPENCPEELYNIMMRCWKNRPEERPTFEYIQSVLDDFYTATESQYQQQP
Experiment: phosphorylation enrichment, bacterial display (enrichment ratio); higher = better substrate or ligand; peptides without Tyr show the background
One number for each entry.

Below are worked cases with known answers.
residue sequence	value type	recorded value
HDKEFYSVHNK [MET_Y1235_Y1230H_YF]	phosphorylation enrichment	1.03
KQVEQYMSFHK [HCN1_Y417]	phosphorylation enrichment	3.62
LSSEMCVKSFT [F5_Y2149_Y2149C_YF]	phosphorylation enrichment	0.971
DRPASYLEKVR [KRT13_Y118_L115P]	phosphorylation enrichment	0.284
GAVGHYVLAER [HFE_Y342_M339V]	phosphorylation enrichment	0.454

List phosphorylation enrichment for every entry below, keeping the order given.
1. YSDPSYVKQME [CDC5L_Y464]
2. DSILVYQGKEQ [USH2A_Y1909]
3. GHEYIYVDRMQ [PDGFRB_Y581_P584R]
4. YGLQAYTKVKT [ALDH2_Y502_E504K]

A)
0.593
0.621
1.44
0.377

====

Biological target: EPHB1 (UniProt P54762)
Sequence (P54762 whole entry, looked up): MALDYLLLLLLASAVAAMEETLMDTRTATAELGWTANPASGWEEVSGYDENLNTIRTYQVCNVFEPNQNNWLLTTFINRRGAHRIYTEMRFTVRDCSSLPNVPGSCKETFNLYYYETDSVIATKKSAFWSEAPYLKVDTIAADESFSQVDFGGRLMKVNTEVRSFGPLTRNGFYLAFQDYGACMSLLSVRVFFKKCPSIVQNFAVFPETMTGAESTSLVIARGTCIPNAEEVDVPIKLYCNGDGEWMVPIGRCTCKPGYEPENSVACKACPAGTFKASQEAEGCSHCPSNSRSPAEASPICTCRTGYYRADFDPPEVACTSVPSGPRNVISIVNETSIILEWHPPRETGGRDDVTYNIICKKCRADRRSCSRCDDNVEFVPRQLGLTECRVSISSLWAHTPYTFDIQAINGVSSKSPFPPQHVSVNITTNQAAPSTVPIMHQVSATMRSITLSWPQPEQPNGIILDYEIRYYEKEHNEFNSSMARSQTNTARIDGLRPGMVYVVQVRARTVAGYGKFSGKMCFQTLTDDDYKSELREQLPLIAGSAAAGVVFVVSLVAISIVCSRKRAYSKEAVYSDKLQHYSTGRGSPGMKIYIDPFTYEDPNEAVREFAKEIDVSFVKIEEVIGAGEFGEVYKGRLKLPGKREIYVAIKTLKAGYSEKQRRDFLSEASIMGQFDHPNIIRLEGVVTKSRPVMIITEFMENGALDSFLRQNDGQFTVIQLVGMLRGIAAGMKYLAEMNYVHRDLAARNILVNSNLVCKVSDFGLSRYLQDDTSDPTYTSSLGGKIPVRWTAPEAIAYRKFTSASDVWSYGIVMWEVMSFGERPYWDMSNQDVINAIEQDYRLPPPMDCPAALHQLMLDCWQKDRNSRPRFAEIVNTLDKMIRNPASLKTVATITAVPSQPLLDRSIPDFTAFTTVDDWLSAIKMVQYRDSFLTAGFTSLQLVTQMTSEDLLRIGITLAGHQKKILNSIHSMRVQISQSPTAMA
Test: phosphorylation enrichment, bacterial display (enrichment ratio); higher = better substrate or ligand; peptides without Tyr show the background
Could you please report measured phosphorylation enrichment for the items listed next?

residue sequence	phosphorylation enrichment
LSALDYKIFFF [WDPCP_Y210_YF]	0.588
LVGTPYWMAPE [PAK5_Y608]	0.775
VTSLKYSTPPY [BRIP1_Y916_S919P]	0.355
HGDSAYHSQRH [ERBB3_Y1132_R1127H]	0.63

Now consider the entry below.
Q) Fill in: phosphorylation enrichment of AVPSLYASGRT [ACTA1_Y145_L142P] is ___
A) 0.452

====

Biological target: Grb2 SH2 (UniProt P62993)
Sequence (P62993 whole entry, looked up): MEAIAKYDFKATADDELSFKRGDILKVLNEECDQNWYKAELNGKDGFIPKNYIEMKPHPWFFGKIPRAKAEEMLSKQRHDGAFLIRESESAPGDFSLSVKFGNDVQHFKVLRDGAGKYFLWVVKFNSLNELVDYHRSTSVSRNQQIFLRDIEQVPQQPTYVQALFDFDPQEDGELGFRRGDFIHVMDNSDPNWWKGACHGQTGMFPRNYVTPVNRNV
Test: SH2 binding enrichment of the phosphorylated peptide, bacterial display (enrichment ratio); higher = better substrate or ligand; peptides without Tyr show the background
met means recorded SH2 binding enrichment is 0.9 or above; not met means it is below 0.9.

A selection of reference data follows.
residue sequence	label value
DGQVNYEELVQ [CALM1_Y139_F142L]	not met
HNQDGYSFLSR [LDLR_Y845_P848L_YF]	not met
AMIADYMFWLG [SPATA16_Y290]	met
WEQELYSQLVY [WAS_Y102]	met
ERPIRYLNHQL [CEP152_Y268_Q265P]	met

Q) Hi team, for SHMVDYQPFRK [TEX37_Y25_YF] , is the recorded SH2 binding enrichment at or above 0.9?
A) met

====

Target: EPHB1 (UniProt P54762)
Assay: phosphorylation enrichment, bacterial display (enrichment ratio); higher = better substrate or ligand; peptides without Tyr show the background
Could you please report measured phosphorylation enrichment for the items listed next?

Below are worked cases with known answers.
residue sequence	value type	recorded value
SFPHEYGSQEG [RBM10_Y48_R46H_YF]	phosphorylation enrichment	0.485
RALRHYYKLNI [ETV6_Y401]	phosphorylation enrichment	1.29
EIRTQDEAMAS [GFAP_Y242_Y242D]	phosphorylation enrichment	0.515

List phosphorylation enrichment for every entry below, keeping the order given.
1. KRLDGYVLEGR [IGSF9_Y656]
2. PEVRRYVLPLN [RPE65_Y368]
3. TLAHKYHGGGG [HBB_Y146_A141T]

A)
0.356
1.3
0.46

====

Biological target: Fyn (UniProt P06241)
Sequence (P06241 whole entry, looked up): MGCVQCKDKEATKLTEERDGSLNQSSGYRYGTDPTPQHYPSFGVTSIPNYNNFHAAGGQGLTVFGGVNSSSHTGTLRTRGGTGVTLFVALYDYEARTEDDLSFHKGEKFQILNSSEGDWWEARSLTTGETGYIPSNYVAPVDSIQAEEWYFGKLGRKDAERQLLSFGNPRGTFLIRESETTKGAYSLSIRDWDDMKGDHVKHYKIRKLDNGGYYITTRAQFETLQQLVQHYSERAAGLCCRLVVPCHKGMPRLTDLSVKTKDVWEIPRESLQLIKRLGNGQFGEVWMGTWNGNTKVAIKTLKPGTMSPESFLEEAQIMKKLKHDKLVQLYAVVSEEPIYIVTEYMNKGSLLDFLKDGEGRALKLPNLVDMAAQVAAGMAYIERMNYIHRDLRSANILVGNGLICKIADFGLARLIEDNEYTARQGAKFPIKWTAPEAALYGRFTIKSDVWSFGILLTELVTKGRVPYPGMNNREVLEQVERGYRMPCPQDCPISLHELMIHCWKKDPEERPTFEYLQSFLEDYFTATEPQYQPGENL
Experiment: phosphorylation enrichment, bacterial display (enrichment ratio); higher = better substrate or ligand; peptides without Tyr show the background
label 1 means recorded phosphorylation enrichment is 0.6 or above; label 0 means it is below 0.6.

A selection of reference data follows.
residue sequence	target	label value
CYSSEYHYVGG [CTSC_Y345_Y340C]	Fyn (UniProt P06241)	label 1
RTESQYQENRG [LRCH3_Y354_R350T]	Fyn (UniProt P06241)	label 0
GAVGHYVLAER [HFE_Y342_M339V]	Fyn (UniProt P06241)	label 0
EKKQTYGSCRK [LACTB_Y473_R469K]	Fyn (UniProt P06241)	label 0
GIVEEYQLPYY [BMPR1A_Y453]	Fyn (UniProt P06241)	label 1

Q) Hi team, for ESMNIYLQTSP [NAT1_Y208_T207I] , is the recorded phosphorylation enrichment at or above 0.6?
A) label 1

Q) Hi team, for LPEVSYVKAID [GLRA1_Y307_K304E] , is the recorded phosphorylation enrichment at or above 0.6?
A) label 0

Q) Hi team, for NVTRKYSRQIL [MAP3K2_Y463_T464S] , is the recorded phosphorylation enrichment at or above 0.6?
A) label 0

Q) Hi team, for RRVLVYVGRGA [QDPR_Y16_G17V] , is the recorded phosphorylation enrichment at or above 0.6?
A) label 1

Q) Hi team, for TLAHKYHGGGG [HBB_Y146_A141T] , is the recorded phosphorylation enrichment at or above 0.6?
A) label 0

Q) Hi team, for YQSKHYACIRQ [TIMP3_Y182] , is the recorded phosphorylation enrichment at or above 0.6?
A) label 0

Q) Hi team, for NVGGKYSYLKV [GRM3_Y478] , is the recorded phosphorylation enrichment at or above 0.6?
A) label 0

Q) Hi team, for NFCPGYNNFFN [USH2A_Y467_R464C_YF] , is the recorded phosphorylation enrichment at or above 0.6?
A) label 0

Q) Hi team, for KGVDRYNPENL [EIF3K_Y21_I18V] , is the recorded phosphorylation enrichment at or above 0.6?
A) label 0

Q) Hi team, for KQRSDYARELE [MYH3_Y1140] , is the recorded phosphorylation enrichment at or above 0.6?
A) label 0

Q) Hi team, for QTEGEYSSLEH [IDH3B_Y171] , is the recorded phosphorylation enrichment at or above 0.6?
A) label 1

Q) Hi team, for HFPFQCHRQLF [F12_Y53_Y53C_YF] , is the recorded phosphorylation enrichment at or above 0.6?
A) label 0

Data provenance: the supplement of paper PMC10065799
